Test Name: Rat 28-day GLP repeat dose PO study (toxicokinetics)
Format: in vivo
Protocol Conditions: male, rat, in vivo, po, 2000 mg/kg
Counter-ions that a name gives are not always drawn.
Observable: CL/F (mL/min/kg)
Field format: number, assumed mL/min/kg, no unit text.

Consider the compound shown here: CC1(C)SC(Nc2ccccc2O)=N[C@@H]1C(=O)O [Compound 1, mono-hydrochloride] What is its recorded CL/F? 47.7

* * *

Test Name: Rat 28-day GLP repeat dose PO study (toxicokinetics)
Type: in vivo
Protocol Conditions: female, rat, in vivo, po, 2000 mg/kg, Day 14, F, 2000 mg/kg PO; read-out: t1/2 (converted)
Protocol: The vehicle was 0.5% HPMC. There were 15 rats/sex in the control and high dose groups (5/sex for a 14-day recovery period) while the low and mid doses consisted of 10 rats/sex. Satellite groups of rats/sex/group for toxicokinetics were included. Rats in Group 1 (Vehicle Control) were bled once at approximately 1 hour post-dose on those days.
Where a name gives a salt, the structure may show the parent alone.
Observable: half-life (h)
Field format: number, assumed h, no unit text.

Consider the molecule shown here: CC1(C)SC(Nc2ccccc2O)=N[C@@H]1C(=O)O [Compound 1, mono-hydrochloride] What is its recorded half-life? 3.56

Ref: patent US20200246316A1
